Listed below: IC50 values for each entry.
# TARGET ENTITY: KRAS Q61H (Homo sapiens (Human), UniProt P01116+P62937, Q61H)
# Sequence (P01116-2 other isoform, or with tags, fused parts or gaps Q61H): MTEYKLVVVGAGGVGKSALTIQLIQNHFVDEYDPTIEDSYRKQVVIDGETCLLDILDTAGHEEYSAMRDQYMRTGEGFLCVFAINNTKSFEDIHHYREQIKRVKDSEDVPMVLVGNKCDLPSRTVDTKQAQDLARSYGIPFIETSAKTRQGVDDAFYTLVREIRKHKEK
# Sequence (P62937 whole entry): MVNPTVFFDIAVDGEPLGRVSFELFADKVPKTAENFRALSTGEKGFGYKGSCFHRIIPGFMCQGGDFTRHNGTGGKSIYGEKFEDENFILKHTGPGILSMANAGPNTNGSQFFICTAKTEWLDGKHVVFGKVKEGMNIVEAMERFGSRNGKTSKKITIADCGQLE
# ASSAY NOTES: Ras-Raf (BRAF RBD) disruption / FRET / MOA assay, KRAS Q61H
# Type: biochemical
# CONDITION NOTES: Ras-Raf disruption/FRET/MOA assay; class symbols; read-out: KRAS Q61H FRET data IC50
MEASURE NAME: IC50

MOLECULE: C=CC(=O)N1CC[C@]2(CCN(C(=O)N(C)[C@H](C(=O)N[C@H]3Cc4nc(cs4)-c4ccc5c(c4)c(c(-c4cccnc4[C@H](C)OC)n5CC)CC(C)(C)COC(=O)[C@@H]4CCCN(N4)C3=O)C(C)C)C2)C1 (atropisomer, axis not shown) [Example A719]
MEASURE NAME: IC50
RESULT: 0.01 to 0.1 µM
//
MOLECULE: CCn1c(-c2cccnc2[C@H](C)OC)c2c3cc(ccc31)-c1cccc(c1)C[C@H](NC(=O)[C@H](C(C)C)N1CO[C@@]3(CCN(C(=O)/C=C/CN(C)C)C3)C1=O)C(=O)N1CCC[C@H](N1)C(=O)OCC(C)(C)C2 (atropisomer, axis not shown) [Example A558]
MEASURE NAME: IC50
RESULT: 0.1 to 1 µM
//
MOLECULE: C=CC(=O)N1CC[C@H](C(=O)N(C)[C@H](C(=O)N[C@H]2Cc3cc(cc(C(F)F)c3)-c3ccc4c(c3)c(c(-c3cc(N5CCN(C)CC5)cnc3[C@H](C)OC)n4CC(F)(F)F)CC(C)(C)COC(=O)[C@@H]3CCCN(N3)C2=O)C(C)C)C1 (atropisomer, axis not shown) [Example A357]
MEASURE NAME: IC50
RESULT: 0.1 to 1 µM
//
MOLECULE: C=CC(=O)N1CC[C@H](C(=O)N(C)[C@H](C(=O)N[C@H]2Cc3nc(ns3)-c3ccc4c(c3)c(c(-c3cccnc3[C@H](C)OC)n4CC)CC(C)(C)COC(=O)[C@@H]3CCCN(N3)C2=O)C(C)C)C1 (atropisomer, axis not shown) [Example A202]
MEASURE NAME: IC50
RESULT: 1 to 10 µM
//
MOLECULE: C=CC(=O)N1CC2(CCN2C(=O)N(C)[C@H](C(=O)N[C@H]2Cc3nc(n(C)n3)-c3ccc4c(c3)c(c(-c3cccnc3[C@H](C)OC)n4CC)CC(C)(C)COC(=O)[C@@H]3CCCN(N3)C2=O)C(C)C)C1 (atropisomer, axis not shown) [Example A612]
MEASURE NAME: IC50
RESULT: 0.01 to 0.1 µM
//
MOLECULE: C=CC(=O)N1CC[C@]2(CCN2C(=O)N(C)[C@H](C(=O)N[C@H]2Cc3nc(cs3)-c3ccc4c(c3)c(c(-c3cccnc3[C@H](C)OC)n4CC)CC(C)(C)COC(=O)[C@@H]3CCCN(N3)C2=O)C(C)C)C1 (atropisomer, axis not shown) [Example A662]
MEASURE NAME: IC50
RESULT: 0.01 to 0.1 µM
//
MOLECULE: C=CC(=O)N(C)[C@@H]1C[C@@H](C)N(C(=O)N(C)[C@H](C(=O)N[C@H]2Cc3nc(cs3)-c3ccc4c(c3)c(c(-c3cccnc3[C@H](C)OC)n4CC)CC(C)(C)COC(=O)[C@@H]3CCCN(N3)C2=O)C(C)C)C1 (atropisomer, axis not shown) [Example A634]
MEASURE NAME: IC50
RESULT: 0.1 to 1 µM
//
MOLECULE: CCn1c(-c2cccnc2[C@H](C)OC)c2c3cc(ccc31)N1CCO[C@@H](C[C@H](NC(=O)[C@H](C(C)C)N3CC[C@@]4(CCN(C(=O)C#CC(C)(C)N(C)C)C4)C3=O)C(=O)N3CCC[C@H](N3)C(=O)OCC(C)(C)C2)C1 (atropisomer, axis not shown) [Example A614]
MEASURE NAME: IC50
RESULT: > 10 µM
